- Test system: Yersinia pestis
- test-summary: microbe, parasite or virus in culture
- Type: cell-based
- experimental-context: read-out: MIC Y.p.
Structures can show the parent of a compound that is named as a salt.
experimental-readout: MIC (µg/mL)
Number only, in µg/mL; omit the unit.

>  <compound>
CN[C@@H]1[C@H](O)[C@H](NC)[C@H]2O[C@]3(O)[C@H](O[C@@H]2[C@H]1O)O[C@H](C)C[C@@]3(O)CNCc1ccc(OC(F)(F)F)cc1 [compound 11, Trihydrochloride]

>  <target>
Yersinia pestis

>  <experimental-readout>
MIC

>  <experimental-result>
200

$$$$
>  <compound>
CN[C@@H]1[C@H](O)[C@H](NC)[C@H]2O[C@]3(O)[C@H](O[C@@H]2[C@H]1O)O[C@H](C)C[C@@]3(O)CNCc1ccc(F)c(F)c1 [compound 12, Trihydrochloride]

>  <target>
Yersinia pestis

>  <experimental-readout>
MIC

>  <experimental-result>
200

$$$$
>  <compound>
CN[C@@H]1[C@H](O)[C@H](NC)[C@H]2O[C@]3(O)[C@H](O[C@@H]2[C@H]1O)O[C@H](C)C[C@@]3(O)CNCCc1ccccc1 [compound 6, Trihydrochloride]

>  <target>
Yersinia pestis

>  <experimental-readout>
MIC

>  <experimental-result>
200

$$$$
>  <compound>
CN[C@@H]1[C@H](O)[C@H](NC)[C@H]2O[C@]3(O)[C@H](O[C@@H]2[C@H]1O)O[C@H](C)C[C@@]3(O)CNCc1ccc(F)cc1 [compound 2, Trihydrochloride]

>  <target>
Yersinia pestis

>  <experimental-readout>
MIC

>  <experimental-result>
100

$$$$

Query string: Could you tell me which MIC is on file for CN[C@@H]1[C@H](O)[C@H](NC)[C@H]2O[C@@]3(O)C(=O)C[C@@H](C)O[C@H]3O[C@@H]2[C@H]1O [SPC, reference compound] ?
Result string: 12.5

---

# MIC per entry
- Tested on: Streptococcus pneumoniae clinical isolates representing several serotypes
- test-summary: MIC determination, Streptococcus pneumoniae panel of clinical isolates (Table 7)
- Format: cell-based
- experimental-context: Streptococcus pneumoniae; S. pneumoniae BHN97x, Drug Susceptible; read-out: MIC BHN97x
Structures can show the parent of a compound that is named as a salt.
Number only, in mg/L; omit the unit.

Observe how each entry below is paired with its result.
>  <compound>
CN[C@@H]1[C@H](O)[C@H](NC)[C@H]2O[C@]3(O)[C@H](O[C@@H]2[C@H]1O)O[C@H](C)C[C@@]3(O)CNCc1ccc(F)cc1 [compound 2, Trihydrochloride]

>  <experimental-result>
1.6

$$$$
>  <compound>
CN[C@@H]1[C@H](O)[C@H](NC)[C@H]2O[C@]3(O)[C@H](O[C@@H]2[C@H]1O)O[C@H](C)CC3(O)CN (stereo partly shown) [mSPC, 3′-aminomethyl-3′-hydroxy spectinomycin, reference compound]

>  <experimental-result>
50

$$$$
>  <compound>
CN[C@@H]1[C@H](O)[C@H](NC)[C@H]2O[C@]3(O)[C@H](O[C@@H]2[C@H]1O)O[C@H](C)C[C@@]3(O)CNCc1ccccc1 [compound 1, Trihydrochloride]

>  <experimental-result>
3.1

$$$$

Now turn to the next compound.
Query string: Notebook entry, Streptococcus pneumoniae clinical isolates representing several serotypes assay: MIC of CN[C@@H]1[C@H](O)[C@H](NC)[C@H]2O[C@]3(O)[C@H](O[C@@H]2[C@H]1O)O[C@H](C)C[C@@]3(O)CNCCc1ccccc1 [compound 6, Trihydrochloride] = ?
Result string: 3.1
